Recorded values, source the NIST ThermoML archive (doi:10.1016/j.jct.2011.04.018).

# experimentNotes: activity coefficient (dimensionless); of the first substance listed, at infinite dilution; xn = mol fraction of the nth substance listed
# statedConditions: 358.15 K; 101 kPa; Liquid; Chromatography; x1 = 0

{"compound": "Cc1ccc(C)cc1 [1,4-dimethylbenzene] + O=S(=O)([N-]S(=O)(=O)C(F)(F)F)C(F)(F)F.OCCC[n+]1ccccc1", "activity coefficient": 3.63}
{"compound": "CC1CCCCC1 [methylcyclohexane] + O=S(=O)([N-]S(=O)(=O)C(F)(F)F)C(F)(F)F.OCCC[n+]1ccccc1", "activity coefficient": 24.7}
{"compound": "c1ccsc1 [thiophene] + O=S(=O)([N-]S(=O)(=O)C(F)(F)F)C(F)(F)F.OCCC[n+]1ccccc1", "activity coefficient": 1.3}
{"compound": "CCCCCC [hexane] + O=S(=O)([N-]S(=O)(=O)C(F)(F)F)C(F)(F)F.OCCC[n+]1ccccc1", "activity coefficient": 32.8}
{"compound": "CCCC(C)=O [pentan-2-one] + O=S(=O)([N-]S(=O)(=O)C(F)(F)F)C(F)(F)F.OCCC[n+]1ccccc1", "activity coefficient": 0.984}
{"compound": "C1CCCCCCC1 [cyclooctane] + O=S(=O)([N-]S(=O)(=O)C(F)(F)F)C(F)(F)F.OCCC[n+]1ccccc1", "activity coefficient": 31.3}
{"compound": "C#CCCCCC [1-heptyne] + O=S(=O)([N-]S(=O)(=O)C(F)(F)F)C(F)(F)F.OCCC[n+]1ccccc1", "activity coefficient": 8.74}
{"compound": "CO [methanol] + O=S(=O)([N-]S(=O)(=O)C(F)(F)F)C(F)(F)F.OCCC[n+]1ccccc1", "activity coefficient": 0.749}
{"compound": "CCCO [propan-1-ol] + O=S(=O)([N-]S(=O)(=O)C(F)(F)F)C(F)(F)F.OCCC[n+]1ccccc1", "activity coefficient": 1.34}
{"compound": "CCC(=O)CC [pentan-3-one] + O=S(=O)([N-]S(=O)(=O)C(F)(F)F)C(F)(F)F.OCCC[n+]1ccccc1", "activity coefficient": 1.04}
{"compound": "c1ccccc1 [benzene] + O=S(=O)([N-]S(=O)(=O)C(F)(F)F)C(F)(F)F.OCCC[n+]1ccccc1", "activity coefficient": 1.61}
{"compound": "CCc1ccccc1 [ethylbenzene] + O=S(=O)([N-]S(=O)(=O)C(F)(F)F)C(F)(F)F.OCCC[n+]1ccccc1", "activity coefficient": 3.84}
{"compound": "CC(=O)O [acetic acid] + O=S(=O)([N-]S(=O)(=O)C(F)(F)F)C(F)(F)F.OCCC[n+]1ccccc1", "activity coefficient": 0.343}
{"compound": "CCCCCCC [heptane] + O=S(=O)([N-]S(=O)(=O)C(F)(F)F)C(F)(F)F.OCCC[n+]1ccccc1", "activity coefficient": 49.4}
{"compound": "CCCCCCCC [octane] + O=S(=O)([N-]S(=O)(=O)C(F)(F)F)C(F)(F)F.OCCC[n+]1ccccc1", "activity coefficient": 73.6}
{"compound": "C1CCCC1 [cyclopentane] + O=S(=O)([N-]S(=O)(=O)C(F)(F)F)C(F)(F)F.OCCC[n+]1ccccc1", "activity coefficient": 11.1}
{"compound": "O [water] + O=S(=O)([N-]S(=O)(=O)C(F)(F)F)C(F)(F)F.OCCC[n+]1ccccc1", "activity coefficient": 1.17}
{"compound": "CCOCC [diethyl ether] + O=S(=O)([N-]S(=O)(=O)C(F)(F)F)C(F)(F)F.OCCC[n+]1ccccc1", "activity coefficient": 2.97}
{"compound": "CCC(C)(C)OC [2-methoxy-2-methylbutane] + O=S(=O)([N-]S(=O)(=O)C(F)(F)F)C(F)(F)F.OCCC[n+]1ccccc1", "activity coefficient": 4.77}
{"compound": "COC(C)(C)C [2-methoxy-2-methylpropane] + O=S(=O)([N-]S(=O)(=O)C(F)(F)F)C(F)(F)F.OCCC[n+]1ccccc1", "activity coefficient": 3.08}
{"compound": "CCC(C)CC [3-methylpentane] + O=S(=O)([N-]S(=O)(=O)C(F)(F)F)C(F)(F)F.OCCC[n+]1ccccc1", "activity coefficient": 28.5}
{"compound": "CC(C)=O [acetone] + O=S(=O)([N-]S(=O)(=O)C(F)(F)F)C(F)(F)F.OCCC[n+]1ccccc1", "activity coefficient": 0.469}
{"compound": "Cc1ccccc1C [1,2-dimethylbenzene] + O=S(=O)([N-]S(=O)(=O)C(F)(F)F)C(F)(F)F.OCCC[n+]1ccccc1", "activity coefficient": 3.14}
{"compound": "C#CCCCC [1-hexyne] + O=S(=O)([N-]S(=O)(=O)C(F)(F)F)C(F)(F)F.OCCC[n+]1ccccc1", "activity coefficient": 5.8}
{"compound": "C#CCCCCCC [1-octyne] + O=S(=O)([N-]S(=O)(=O)C(F)(F)F)C(F)(F)F.OCCC[n+]1ccccc1", "activity coefficient": 13.2}
{"compound": "C=CCCCCC [1-heptene] + O=S(=O)([N-]S(=O)(=O)C(F)(F)F)C(F)(F)F.OCCC[n+]1ccccc1", "activity coefficient": 25.2}
{"compound": "C=CCCCCCC [oct-1-ene] + O=S(=O)([N-]S(=O)(=O)C(F)(F)F)C(F)(F)F.OCCC[n+]1ccccc1", "activity coefficient": 38.1}
{"compound": "C=CCCCCCCCC [1-decene] + O=S(=O)([N-]S(=O)(=O)C(F)(F)F)C(F)(F)F.OCCC[n+]1ccccc1", "activity coefficient": 86.6}
{"compound": "CC(C)CC(C)(C)C [2,2,4-trimethylpentane] + O=S(=O)([N-]S(=O)(=O)C(F)(F)F)C(F)(F)F.OCCC[n+]1ccccc1", "activity coefficient": 51.4}
